Target: hMC4R (Homo sapiens, UniProt P32245)
Sequence (P32245 whole entry): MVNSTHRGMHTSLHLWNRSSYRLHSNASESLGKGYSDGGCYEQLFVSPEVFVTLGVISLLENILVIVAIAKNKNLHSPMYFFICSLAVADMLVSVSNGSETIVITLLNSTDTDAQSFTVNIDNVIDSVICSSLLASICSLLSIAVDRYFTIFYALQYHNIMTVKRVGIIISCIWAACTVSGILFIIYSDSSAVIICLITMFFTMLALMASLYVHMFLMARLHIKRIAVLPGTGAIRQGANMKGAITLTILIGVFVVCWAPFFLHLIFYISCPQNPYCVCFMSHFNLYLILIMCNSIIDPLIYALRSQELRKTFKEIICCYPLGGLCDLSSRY
Please use true (1) for Ki under 90 nM and false (0) for everything else, ties included.

Look over these answered cases.
N=C(N)NCCC[C@H](NC(=O)[C@@H](Cc1ccccc1)NC(=O)[C@H](Cc1c[nH]cn1)NC(=O)CCCCCn1cc(CN2CCN(Cc3cn(CCCCCC(=O)N[C@@H](Cc4c[nH]cn4)C(=O)N[C@H](Cc4ccccc4)C(=O)N[C@@H](CCCNC(=N)N)C(=O)N[C@@H](Cc4c[nH]c5ccccc45)C(N)=O)nn3)CCN(Cc3cn(CCCCCC(=O)N[C@@H](Cc4c[nH]cn4)C(=O)N[C@H](Cc4ccccc4)C(=O)N[C@@H](CCCNC(=N)N)C(=O)N[C@@H](Cc4c[nH]c5ccccc45)C(N)=O)nn3)CC2)nn1)C(=O)N[C@@H](Cc1c[nH]c2ccccc12)C(N)=O ... true (1)
N=C(N)NCCC[C@H](NC(=O)[C@@H](Cc1ccccc1)NC(=O)[C@H](Cc1c[nH]cn1)NC(=O)CCCCCn1cc(CN(Cc2cn(CCCCCC(=O)N[C@@H](CO)C(N)=O)nn2)Cc2cn(CCCCCC(=O)N[C@@H](Cc3c[nH]cn3)C(=O)N[C@H](Cc3ccccc3)C(=O)N[C@@H](CCCNC(=N)N)C(=O)N[C@@H](Cc3c[nH]c4ccccc34)C(N)=O)nn2)nn1)C(=O)N[C@@H](Cc1c[nH]c2ccccc12)C(N)=O [Compound 16b] ... true (1)
N=C(N)NCCC[C@H](NC(=O)[C@@H](Cc1ccccc1)NC(=O)[C@H](Cc1c[nH]cn1)NC(=O)CCCCCn1cc(CN(Cc2cn(CCCCCC(=O)N[C@@H](Cc3c[nH]cn3)C(=O)N[C@H](Cc3ccccc3)C(=O)N[C@@H](CCCNC(=N)N)C(=O)N[C@@H](Cc3c[nH]c4ccccc34)C(N)=O)nn2)Cc2cn(CCCCCC(=O)N[C@@H](Cc3c[nH]cn3)C(=O)N[C@H](Cc3ccccc3)C(=O)N[C@@H](CCCNC(=N)N)C(=O)N[C@@H](Cc3c[nH]c4ccccc34)C(N)=O)nn2)nn1)C(=O)N[C@@H](Cc1c[nH]c2ccccc12)C(N)=O [Compound 16c] ... true (1)

Next item in the queue.
Hello, is Ki of the following molecule strictly smaller than 90 nM? N=C(N)NCCC[C@H](NC(=O)[C@@H](Cc1ccccc1)NC(=O)[C@H](Cc1c[nH]cn1)NC(=O)CCCCCn1cc(COc2cc(OCc3cn(CCCCCC(=O)N[C@@H](CO)C(N)=O)nn3)cc(OCc3cn(CCCCCC(=O)N[C@@H](CO)C(N)=O)nn3)c2)nn1)C(=O)N[C@@H](Cc1c[nH]c2ccccc12)C(N)=O [Compound 14a]
false (0)
